Test system: EPHA8
Conditions: concentration: 1 μM, replicates: in singlicate; n = 1;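 note: KINOMEscan kinase panel screen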
readoutType: %Inh (%)
API: value field is a number in %; no unit string.

Observe how each entry below is paired with its result.
Nc1nc(N)c2nc(-c3ccccc3)[nH]c2n1 : 4
Nc1nccc2scc(-c3ccc4c(c3)CCN4C(=O)Cc3ccccc3)c12 : 15

For the next question, use this compound.
# lookup: "CCCNC(=O)Nc1ccc(Oc2ncnc3ccn(C)c23)cc1" on EPHA8, %Inh = 0

----------
System: RPS6KA5(Kin.Dom.1-N-terminal)
Details: concentration: 1 μM, replicates: in singlicate; n = 1
Reported %Inh values are given for each entry in this list.
API: value field is a number in %; no unit string.

CCS(=O)c1ccc(-c2coc3ccc(-c4nnc(C)o4)cc23)cc1 (stereo not shown) : 2
COc1cccc(C2=C(N(C)c3ccccc3)C(=O)NC2=O)c1 : 20
CCCNC(=O)Nc1ccc(Oc2ncnc3ccn(C)c23)cc1 : 23
O=C(Nc1n[nH]c2cc(-c3ccccc3F)ccc12)C1CC1 : 0
COC(=O)c1c(-c2ccccc2)c2cc(C)ccc2c(=O)n1Cc1ccccc1 : 10

COc1cc(Nc2nccc(N3CCC(NC(=O)C(C)c4ccc(Cl)cc4)C3)n2)cc(OC)c1OC (stereo not shown) has a reported %Inh of 0

"CCC(=O)c1c(-c2ccccc2)c2cc(Cl)ccc2c(=O)n1Cc1cc(C(=O)NC2CC2)n(C)n1" has a reported %Inh of 15

"Cc1cccc(-c2cc(-c3c[nH]nc3-c3ccccn3)ccn2)c1" has a reported %Inh of 0

"COc1ccc(-n2cnc3c(N)ncnc32)cc1" has a reported %Inh of 15

"COc1cc2ncn(-c3cc(OCc4ccncc4)c(C(N)=O)s3)c2cc1OC" has a reported %Inh of 4

----------
Test system: TAOK3
Details: concentration: 1 μM, replicates: in singlicate; n = 1
readoutType: %Inh (%)
API: value field is a number in %; no unit string.

Cc1nc(N(C)[C@H]2CN(C(=O)CC#N)CC[C@H]2C)c2cc[nH]c2n1 : 0

"COc1ccc(-n2cnc3c(N)ncnc32)cc1" has a reported %Inh of 21

COc1ccc(CNC(=O)NC2CCN(c3ccnc(Nc4ccc(F)cc4)n3)C2)cc1 (centres unmarked) has a reported %Inh of 0

----------
Reported %Inh values are given for each entry in this list.
System: FLT3-autoinhibited
Conditions: concentration: 1 μM, replicates: in singlicate; n = 1
API: value field is a number in %; no unit string.

"Cc1nc(N(C)[C@H]2CN(C(=O)CC#N)CC[C@H]2C)c2cc[nH]c2n1" has a reported %Inh of 0

----------
Reported %Inh values are given for each entry in this list.
Test system: SIK2
Conditions: concentration: 1 μM, replicates: in singlicate; n = 1
API: value field is a number in %; no unit string.

CCc1ccc(-c2ccc3c(c2)-c2nn(C)cc2S(=O)(=O)N3C)cc1 : 0
Cc1cccc(-c2nc(Nc3ccc4c(cnn4C)c3)c3ccccc3n2)n1 : 0

"COc1cccc(-n2cnc3c(N)ncnc32)c1" has a reported %Inh of 0

Cc1nnc(-c2ccc3ncn(-c4ccc(S(C)=O)cc4)c3c2)o1 (stereo not drawn) has a reported %Inh of 13

"CCCC(=O)Nc1n[nH]c2ncc(-c3cccc4ccccc34)cc12" has a reported %Inh of 0

"Cc1ccc(Oc2ccc(Nc3ncnc4cc[nH]c34)cc2C)cn1" has a reported %Inh of 0

COc1cc(Nc2nccc(N3CCC(NC(=O)C(C)c4ccc(Cl)cc4)C3)n2)cc(OC)c1OC (stereo not drawn) has a reported %Inh of 0

"Cc1ccccc1COc1cc(-n2cnc3cc(Cl)ccc32)sc1C(N)=O" has a reported %Inh of 0

"Fc1cccc(CSc2nnc(-c3ccc4c(c3)CCO4)o2)c1" has a reported %Inh of 0

"CCC(=O)c1c(-c2ccccc2)c2cc(Cl)ccc2c(=O)n1Cc1cc(S(C)(=O)=O)n(CC(N)=O)n1" has a reported %Inh of 2

COc1cc(Nc2nccc(N3CCC(NC(=O)C4COc5ccccc5O4)C3)n2)cc(OC)c1OC (stereo not drawn) has a reported %Inh of 0

"COc1cc2nccc(Nc3cccc(Oc4ccccc4)c3)c2cc1OC.Cl" has a reported %Inh of 0
